B1: DnaJ homolog subfamily C member 2, residues 451 to 503; numbered along this chain, Q99543 (parent)
chain: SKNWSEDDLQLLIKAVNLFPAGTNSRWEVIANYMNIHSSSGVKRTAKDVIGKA

# Variants of: B1
# procedure_text: abundance fitness (aPCA) (normalised: wild type 0, dead -1); higher = more abundant; growth selection in yeast, the domain comes from the species named
# condition_set: Homo sapiens
Classification field: yes (1) = abundance fitness at or over -0.3; no (0) = abundance fitness under -0.3.

>>> cat("G51S")
"yes (1)"
>>> cat("D7Y")
"no (0)"
>>> cat("S5Y")
"no (0)"
>>> cat("E6S")
"yes (1)"
>>> cat("V16P")
"no (0)"
>>> cat("I30W")
"no (0)"

Query block: Kindly determine if abundance fitness recorded for N3P is above or exactly -0.3.
Result block: yes (1)
